- Test system: IL-1β production, LPS-challenged mice
- METHOD NOTES: In vivo acute assay for efficacy as anti-inflammatory agent: LPS-induced IL-1β production in mice
- Set-up: species or system mouse
- STATED CONDITIONS: Mus musculus, po, 1 h, LPS challenged mice; compound PO, 50 mg/kg; administered −1 h relative to time of LPS challenge; read-out: percent inhibition of IL-1β production
# inhibition at 50 mg/kg >= 40% gives true, anything below gives false

**Q:** Would you say O=C1C[C@H](NC(=O)[C@@H]2CCCN3C(=O)CC[C@H](NC(=O)c4ccccc4)C(=O)N23)C(OCc2ccccc2)O1 (single isomer, unassigned) [Compound 2100n] shows inhibition at 50 mg/kg at minimum 40%?
**A:** false

**Q:** Would you say O=C1C[C@H](NC(=O)[C@@H]2CCCN3C(=O)CC[C@H](NC(=O)c4ccccc4)C(=O)N23)[C@H](OCc2ccccc2)O1 [Compound 2100o] shows inhibition at 50 mg/kg at minimum 40%?
**A:** true

**Q:** Would you say O=C1C[C@H](NC(=O)[C@@H]2CCCN3C(=O)CC[C@H](NC(=O)c4ccccc4)C(=O)N23)C(OCCc2ccccc2)O1 (mixture of isomers) [Compound 2100k] shows inhibition at 50 mg/kg at minimum 40%?
**A:** true

**Q:** Would you say O=C1C[C@H](NC(=O)[C@@H]2CCCN3C(=O)CC[C@H](NC(=O)C(=O)c4ccccc4)C(=O)N23)C(OCc2ccccc2)O1 (stereo partly drawn) shows inhibition at 50 mg/kg at minimum 40%?
**A:** true

**Q:** Would you say O=C[C@H](CC(=O)O)NC(=O)[C@@H]1CCCN2C(=O)CC[C@H](NC(=O)c3ccccc3)C(=O)N12 [Compound 214e] shows inhibition at 50 mg/kg at minimum 40%?
**A:** true

----------
- TESTED ON: ICE (Homo sapiens, UniProt P29466)
- Sequence (P29466 120-297 limits assumed): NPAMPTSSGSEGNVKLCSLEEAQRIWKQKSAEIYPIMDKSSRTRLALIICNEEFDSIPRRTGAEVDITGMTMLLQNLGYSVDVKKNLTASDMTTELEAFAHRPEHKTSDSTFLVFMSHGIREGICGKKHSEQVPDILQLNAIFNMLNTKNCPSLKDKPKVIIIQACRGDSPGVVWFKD
- Sequence (P29466 317-404 limits assumed): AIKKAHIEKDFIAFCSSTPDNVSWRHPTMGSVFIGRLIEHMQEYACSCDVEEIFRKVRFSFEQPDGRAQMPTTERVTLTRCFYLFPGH
- METHOD NOTES: Enzyme assay with UV-visible substrate (visible ICE assay, Succinyl-Tyr-Val-Ala-Asp-pNitroanilide)
- Type: biochemical
- STATED CONDITIONS: Table 5
- Description: 1. Enzyme Assay with Uv-Visible Substrate This assay is run using an Succinyl-Tyr-Val-Ala-Asp-pNitroanilide substrate. Synthesis of analogous substrates is described by L. A. Reiter (Int. J. Peptide Protein Res. 12, 87-96 (1994)). The assay mixture contains: The visible ICE assay is run in a 96-well microtiter plate. […] The microtiter plate reader is set to incubate at 37° C. […] A linear fit of the data is performed and the rate is calculated in mOD/min. […]
pKi: −log10 of the molar value.
just bin them by pKi: lower band = under 7, central band = from 7 up to 8, upper band = 8 and over

**Q:** Looking at CC(=O)C(=O)N1C[C@H](NC(=O)c2ccccc2)C(=O)N(CC(=O)N[C@H](C=O)CC(=O)O)c2ccccc21 [Compound 605i] , which class would you pick?
**A:** lower band

**Q:** Looking at O=C[C@H](CC(=O)O)NC(=O)[C@@H]1CCCN2C(=O)CC[C@H](NS(=O)(=O)c3ccccc3)C(=O)N12 [Compound 427] , which class would you pick?
**A:** lower band

**Q:** Looking at NS(=O)(=O)c1ccc(C(=O)N[C@H]2CCC(=O)N3CCC[C@@H](C(=O)N[C@H](C=O)CC(=O)O)N3C2=O)cc1 [Compound 478] , which class would you pick?
**A:** lower band

**Q:** Looking at O=C[C@H](CC(=O)O)NC(=O)[C@@H]1CCCN2C(=O)CC[C@H](NC(=O)c3cc4ccccc4[nH]3)C(=O)N12 [Compound 475] , which class would you pick?
**A:** upper band

**Q:** Looking at O=C[C@H](CC(=O)O)NC(=O)[C@@H]1CCCN2C(=O)CC[C@H](NC(=O)c3nccc4ccccc34)C(=O)N12 [Compound 412] , which class would you pick?
**A:** upper band

**Q:** Looking at CCn1nc(C)cc1C(=O)N[C@H]1CCC(=O)N2CCC[C@@H](C(=O)N[C@H](C=O)CC(=O)O)N2C1=O [Compound 422] , which class would you pick?
**A:** central band

**Q:** Looking at CC(=O)N1C[C@H](NC(=O)c2ccc3cc(O)ccc3c2)C(=O)N(CC(=O)N[C@H](C=O)CC(=O)O)c2ccccc21 [Compound 622] , which class would you pick?
**A:** central band
